# targetUnderTest: HA of virus A/Panama/2000/1999 (H3N2) (influenza A virus (H3N2))
# measurementProtocol: cell-based or functional assay
measureName: Neutralization titer SK50

The value of Neutralization titer SK50 measured for the binder CR8018 (antibody, V domains shown) VH: EVQLVETGGDLVQPGGSLRLSCSASEFSFSSYWMSWVRQAPGKGLEWVANMKQDGSEKYYVDSVKGRFTISRDNAKNSLYLQMNSLRGEDTAVYYCARGSCDDSWTGCHDAFDI VL: QSALTQPASVSGSPGQSITISCTGTSSDVGGYNYVSWYQQHPGKAPKLMIYEVSHRPSGVSNRFSGSKSGSTASLTISGLQSEDEADYYCSSYTGEGPLGV turned out to be > 40 µg/mL

The recorded Neutralization titer SK50 for entry CR8001 (antibody, V domains shown) VH: EVQLVESGGGLIQPGGSLRLSCAASGFTVSSNYVSWVRQAPGKGLEWLSLIYTGGTTYYADSVKGRFTISRDNSKNTVFLQMNSLRAEDAAMYYCARVSALRFLQWPNYAMDV VL: QSALTQPASVSGSPGRSITISCSGTRSDVGGHNYVSWYQQHPGKAPKLMIYEVSHRPSGVSNRFSGSKSGSTASLTISGLQSEDEADYYCSSYTGEGPLGV equals > 40 µg/mL

For CR8055 (antibody, V domains shown) VH: EIVLTQSPDFQSVAPKEKVTITCRASRSIGSDLHWFQQRPDQSPKLLIKFASQSMSGVPSRFSGSGSGRDFTLTISSLEAEDAATYYCHQSSSLPLT VL: EVQLVESGGGLVQPGGSLRLSCAASGFTDSVIFMSWVRQAPGKGLECVSIIYIDDSTYYADSVKGRFTISRHNSMGTVFLEMNSLRPDDTAVYYCATESGDFGDQTGPYHYYAMDV the binder record lists Neutralization titer SK50 as > 40 µg/mL

Hello, the source for this data is patent US20130309248A1, in case you need it.
